Where these numbers come from: patent US12590123B2

Task for the reader: assign each of the following molecules its reported IC50.
Target: activated hepsin (Homo sapiens, UniProt P05981)
Construct: purchased R&D Systems 4776-SE-010
Sequence (P05981 163-417 limits assumed): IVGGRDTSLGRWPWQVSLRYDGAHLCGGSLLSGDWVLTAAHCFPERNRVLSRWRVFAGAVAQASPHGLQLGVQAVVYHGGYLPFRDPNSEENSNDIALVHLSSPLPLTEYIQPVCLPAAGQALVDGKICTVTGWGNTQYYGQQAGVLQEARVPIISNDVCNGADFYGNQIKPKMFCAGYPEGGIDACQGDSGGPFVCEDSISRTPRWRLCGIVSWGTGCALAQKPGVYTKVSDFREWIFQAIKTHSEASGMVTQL
Sequence (P05981 1-162 partner limits assumed): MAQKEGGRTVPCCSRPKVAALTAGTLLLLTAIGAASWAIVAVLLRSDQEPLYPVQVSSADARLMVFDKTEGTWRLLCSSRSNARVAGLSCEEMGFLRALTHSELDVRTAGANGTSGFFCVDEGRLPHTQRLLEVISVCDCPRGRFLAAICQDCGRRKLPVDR
Assay: Fluorescent kinetic enzyme assay of hepsin activity (Boc-QAR-AMC)
Type: biochemical
Conditions: Table 2; read-out: Hepsin (IC50 nM)
All answers are understood in nM, so give the number only.

Briefly, IC50 measured for `CC(=O)N[C@H]1Cc2ccc(cc2)OCCCC[C@@H](C(=O)N[C@@H](CCCNC(=N)N)C(=O)c2nc3ccccc3s2)NC(=O)[C@H](CC(C)C)NC1=O` : 0.175

Briefly, IC50 measured for `CC(=O)N[C@H]1Cc2ccc(cc2)OC/C=C\CNC(=O)C[C@@H](C(=O)N[C@@H](CCCNC(=N)N)C(=O)c2nc3ccccc3s2)NC(=O)[C@H](CC(C)C)NC1=O` : 0.643

Briefly, IC50 measured for `C=CCNC(=O)CC[C@H](NC(=O)[C@H](CC(C)C)NC(=O)[C@H](Cc1ccc(OCC=C)cc1)NC(C)=O)C(=O)N[C@@H](CCCNC(=N)N)C(=O)c1nc2ccccc2s1` : 10.1

###

Target: Factor Xa (Homo sapiens, UniProt P00742)
Sequence (P00742 235-488 limits assumed): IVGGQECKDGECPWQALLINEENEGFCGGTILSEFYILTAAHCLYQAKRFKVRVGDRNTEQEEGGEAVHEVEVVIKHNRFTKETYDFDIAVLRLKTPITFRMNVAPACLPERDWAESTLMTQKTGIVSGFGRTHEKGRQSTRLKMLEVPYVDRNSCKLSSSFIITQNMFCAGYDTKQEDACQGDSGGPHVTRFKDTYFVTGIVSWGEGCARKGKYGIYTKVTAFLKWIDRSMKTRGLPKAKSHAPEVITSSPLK
Sequence (P00742 41-179 partner limits assumed): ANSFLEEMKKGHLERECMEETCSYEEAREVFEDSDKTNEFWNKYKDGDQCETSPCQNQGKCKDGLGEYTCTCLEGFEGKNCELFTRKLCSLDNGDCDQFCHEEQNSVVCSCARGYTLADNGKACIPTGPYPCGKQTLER
Assay: Chromogenic kinetic enzyme assay of Factor Xa (S2222)
Type: biochemical
Details: Table 2; chromogenic assay; read-out: Factor Xa* (IC50 nM)
Friendly reminder: IC50 below 2000 nM is t, at or above is f.

## Task Say whether its IC50 is strictly beneath 2000 nM. Entry: `CC(=O)N[C@H]1CC(=O)NCCCC[C@@H](C(=O)N[C@@H](CCCNC(=N)N)C(=O)c2nccs2)NC(=O)[C@H](CC(C)C)NC1=O`
## Result t

## Task Say whether its IC50 is strictly beneath 2000 nM. Entry: CC(=O)N[C@H]1Cc2ccc(cc2)OCCCC[C@@H](C(=O)N[C@@H](CCCNC(=N)N)C(=O)c2nc3ccccc3s2)NC(=O)[C@@H](Cc2c[nH]c3ccccc23)NC1=O [VD4162A]
## Result f

## Task Say whether its IC50 is strictly beneath 2000 nM. Entry: CC(=O)N[C@H]1CCCCNC(=O)CCC(C(=O)N[C@@H](CCCNC(=N)N)C(=O)c2nc3ccccc3s2)NC(=O)[C@H](CCCNC(=N)N)NC1=O (stereo partly drawn) [VD2109B]
## Result t

## Task Say whether its IC50 is strictly beneath 2000 nM. Entry: CC(=O)N[C@H]1CCCCn2cc(nn2)C[C@H](C(=O)N[C@H](CCCNC(=N)N)C(=O)c2nc3ccccc3s2)NC(=O)[C@H](CC(C)C)NC1=O [VD4118B]
## Result f

## Task Say whether its IC50 is strictly beneath 2000 nM. Entry: `CC(=O)N[C@H]1CC(=O)NCCCC[C@@H](C(=O)N[C@@H](CCCNC(=N)N)C(=O)c2nc3ccccc3s2)NC(=O)[C@H](C(C)C)NC1=O`
## Result t

## Task Say whether its IC50 is strictly beneath 2000 nM. Entry: `CC(=O)N[C@H]1CCC(=O)NCCCC[C@@H](C(=O)N[C@@H](CCCNC(=N)N)C(=O)c2nc3ccccc3s2)NC(=O)[C@H](CC(C)C)NC1=O`
## Result t

## Task Say whether its IC50 is strictly beneath 2000 nM. Entry: `CC(=O)N[C@H]1CC(=O)NCCCC[C@@H](C(=O)N[C@@H](CCCNC(=N)N)C(=O)c2nc3ccccc3s2)NC(=O)[C@H](Cc2ccccc2)NC1=O`
## Result t

## Task Say whether its IC50 is strictly beneath 2000 nM. Entry: `CC(=O)N[C@H]1CCCCn2cc(nn2)C[C@H](C(=O)N[C@@H](CCCNC(=N)N)C(=O)c2nc3ccccc3s2)NC(=O)[C@H](CC(C)C)NC1=O`
## Result t

## Task Say whether its IC50 is strictly beneath 2000 nM. Entry: CC(=O)N[C@H]1CC(=O)N(C)CCCC[C@@H](C(=O)N[C@@H](CCCNC(=N)N)C(=O)c2nc3ccccc3s2)NC(=O)[C@H](CC(C)C)NC1=O [VD4192C2]
## Result f

## Task Say whether its IC50 is strictly beneath 2000 nM. Entry: CC(=O)N[C@H]1CC(=O)N(C)CCCC[C@@H](C(=O)N[C@@H](CCCNC(=N)N)C(=O)c2nc3ccccc3s2)NC(=O)[C@H](CC(C)C)NC1=O [VD4192B]
## Result t

## Task Say whether its IC50 is strictly beneath 2000 nM. Entry: `CC(=O)N[C@H]1CCCCNC(=O)CC[C@@H](C(=O)N[C@@H](CCCNC(=N)N)C(=O)c2nc3ccccc3s2)NC(=O)[C@H](CC(C)C)NC1=O`
## Result t

## Task Say whether its IC50 is strictly beneath 2000 nM. Entry: `CC(=O)N[C@H]1CC(=O)NCCCC[C@@H](C(=O)N[C@@H](CCCNC(=N)N)C(=O)c2nc3ccccc3s2)NC(=O)[C@H](CC(N)=O)NC1=O`
## Result f

###

Task for the reader: assign each of the following compounds its reported IC50.
Target: activated hepsin (Homo sapiens)
Construct: purchased R&D Systems 4776-SE-010
Assay: Fluorescent kinetic enzyme assay of hepsin activity (Boc-QAR-AMC)
Format: biochemical
Conditions: Example 12; read-out: IC50 for hepsin
Remember to quote the unit after the number.

Briefly, IC50 measured for CC(C)C[C@H](NC(=O)OC(Cc1ccccc1)C1CCNCC1)C(=O)N[C@@H](CCCNC(=N)N)C(=O)c1nc2ccccc2s1 (stereo partly shown) [Compound 11b] : 2 nM

Briefly, IC50 measured for CC(C)C[C@H](NC(=O)OC(c1ccccc1)C1CCNCC1)C(=O)N[C@@H](CCCNC(=N)N)C(=O)c1nc2ccccc2s1 (stereo partly shown) [Compound 11a] : 8 nM

Briefly, IC50 measured for `CC(C)C[C@H](NC(=O)OC1(Cc2ccccc2)CCNCC1)C(=O)N[C@@H](CCCNC(=N)N)C(=O)c1nc2ccccc2s1` : 0.6 nM

Briefly, IC50 measured for `CC(=O)N1CCC(CCc2ccccc2)(OC(=O)N[C@@H](CC(C)C)C(=O)N[C@@H](CCCNC(=N)N)C(=O)c2nc3ccccc3s2)CC1` : 0.5 nM

###

Task for the reader: assign each of the following molecules its reported log10 of IC50.
Molecular target: matriptase (Homo sapiens, UniProt Q9Y5Y6)
Construct: purchased R&D Systems 3946-SE-010
Sequence (Q9Y5Y6 615-855 limits assumed): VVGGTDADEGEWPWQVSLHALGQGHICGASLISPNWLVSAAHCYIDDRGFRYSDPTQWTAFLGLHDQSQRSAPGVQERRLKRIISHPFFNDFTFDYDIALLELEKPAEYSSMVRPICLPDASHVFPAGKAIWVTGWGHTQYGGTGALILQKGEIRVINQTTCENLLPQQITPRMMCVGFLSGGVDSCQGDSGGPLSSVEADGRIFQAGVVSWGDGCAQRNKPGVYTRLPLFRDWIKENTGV
Test: Fluorescent kinetic enzyme assay of matriptase activity (Boc-QAR-AMC)
Format: biochemical
Settings: Table 2; read-out: Matriptase (IC50 nM)
In our notation, the value equals log10 of IC50 in nM.

log10 of IC50 of `CC(=O)N[C@H]1CC(=O)NCCCC[C@@H](C(=O)N[C@@H](CCCNC(=N)N)C(=O)c2nccs2)NC(=O)[C@H](CC(C)C)NC1=O` , assay on matriptase (Homo sapiens, UniProt Q9Y5Y6), is 1.62

log10 of IC50 of `CC(=O)N[C@@H](Cc1ccc(O)c([N+](=O)[O-])c1)C(=O)N[C@@H](CC(C)C)C(=O)N[C@@H](Cc1ccc(Br)cc1)C(=O)N[C@@H](CCCNC(=N)N)C(=O)c1nc2ccccc2s1` , assay on matriptase (Homo sapiens, UniProt Q9Y5Y6), is 0.98

log10 of IC50 of `C=CCNC(=O)CC[C@H](NC(=O)[C@H](CC(C)C)NC(=O)[C@H](Cc1ccc(OCC=C)cc1)NC(C)=O)C(=O)N[C@@H](CCCNC(=N)N)C(=O)c1nc2ccccc2s1` , assay on matriptase (Homo sapiens, UniProt Q9Y5Y6), is 1.28

log10 of IC50 of `CC(=O)N[C@H]1Cc2ccc(cc2)OC/C=C\C[C@@H](C(=O)N[C@@H](CCCNC(=N)N)C(=O)c2nc3ccccc3s2)NC(=O)[C@H](CC(C)C)NC1=O` , assay on matriptase (Homo sapiens, UniProt Q9Y5Y6), is 0.51

log10 of IC50 of `CC(C)C[C@@H]1NC(=O)[C@@H](N)CCCCNC(=O)C[C@@H](C(=O)N[C@@H](CCCNC(=N)N)C(=O)c2nc3ccccc3s2)NC1=O` , assay on matriptase (Homo sapiens, UniProt Q9Y5Y6), is 0.04
